Could you please report measured Kd for the items listed next?
Target: T1, PUF4 RNA-binding domain (Saccharomyces cerevisiae, UniProt P25339 537-888)
T1 sequence: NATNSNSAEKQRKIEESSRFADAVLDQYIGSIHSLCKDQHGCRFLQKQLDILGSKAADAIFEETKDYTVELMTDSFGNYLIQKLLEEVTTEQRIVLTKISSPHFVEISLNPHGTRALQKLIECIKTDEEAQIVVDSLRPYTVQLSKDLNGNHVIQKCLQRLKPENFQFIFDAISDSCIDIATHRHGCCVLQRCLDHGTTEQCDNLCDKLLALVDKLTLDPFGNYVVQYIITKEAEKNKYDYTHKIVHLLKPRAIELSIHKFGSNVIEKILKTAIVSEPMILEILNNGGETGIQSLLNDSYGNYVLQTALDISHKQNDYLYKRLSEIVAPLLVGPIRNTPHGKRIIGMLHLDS
Assay: Mg; RNA-MaP; 20 mM Na-HEPES pH 7.4, 30 mM KOAc, 0.75 mM MgCl2, 0.1% Tween-20, 5% glycerol, 0.1 mg/mL BSA, 2 mM DTT; 25 C; 0.0125-409.6 nM protein
Conditions: tags: N-His6-TEV cleaved; C-SNAP kept, Cy3B-labelled; label: tethered on chip by stalled RNA polymerase
Answer format: numeric, nM implied, no suffix.

What measured Kd goes with UCUCUUCUUUUUGUAUAUAUAUCUCUU (ssRNA) [Ie_S1_P3E.2_K3.1_C3.2_H3.1_[+1TTT]_A3.1_F3.1_T3.2] ?
5.49

What does the data say about its Kd? Entry: Id_ii_S4_P3E.4_K3.3_C3.2_[C-2A]_[T-1C]_H3.3_A3.1_F3.1_T3.2_[T9A]_[A10C] (ssRNA) RNA: UUUGACAACUGAUCGUUCUUUCUACACACUAUAACUUCUUUCUCGAUCAGUUGUCUUU
1370

If you can, please state the reported Kd value of Id_ii_S2_P4E.4_K4.3_C4.2_[C-2G]_H4.3_A4.1_F4.1_T4.2_[G10A]_[T11A] (ssRNA) RNA: UUUGAUUAAUAUGAUAUCGUUCUUUCUGUACACUAUUAAAUUCUUUCUCGAUAUCAUAUUAAUCUUU .
0.354

Please look up its Kd: Id_ii_S2_P5E.3_K5.2_C5.2_[C-2T]_[T-1A]_H5.2_A5.1_F5.1_T5.2_[T11A] (ssRNA) RNA: UUUGAUUAAUAUGAUAUCGUUCUUUCUUAUAUAUUAUUAAAUUCUUUCUCGAUAUCAUAUUAAUCUUU
22.6

Reported Kd, binder Ic_S4_P3E.1_K3.1_C3.1_H3.1_A3.1_[T5C]_F3.1_T3.1 (ssRNA) RNA: UUUGACAACUGAUCGUUCUUUCUUGUACAUAUUCUUUCUCGAUCAGUUGUCUUU : ____
1.93

Can you look up the measured Kd of Ic_S2_P4E.1_K4.1_C4.1_H4.1_A4.1_[A6T]_[T7G]_F4.1_[T8G]_[A9T]_T4.1 (ssRNA) RNA: UUUGAUUAAUAUGAUAUCGUUCUUUCUUGUAUUGGUUUCUUUCUCGAUAUCAUAUUAAUCUUU for me?
1200

Any idea what its Kd is? The binder is UCUCUUUGUACUGGUUCUCUU (ssRNA) [Ic_S1_P4E.1_K4.1_C4.1_H4.1_A4.1_[T5C]_[A6T]_[T7G]_F4.1_[T8G]_[A9T]_T4.1]
732

I would be grateful if you could share the reported Kd for UCUCUUUGUAGUAAUUUCUCUU (ssRNA) [Ic_S1_P5E.1_K5.1_C5.1_H5.1_A5.1_[T5G]_F5.1_[T8A]_[A10T]_T5.1] .
1270

Any idea what its Kd is? The binder is UCUCUUUCUGUAUAUAUCUCUCUU (ssRNA) [Id_ii_S1_P3E.2_K3.1_C3.2_[C-2T]_[T-1C]_H3.1_A3.1_F3.1_T3.2_[A10C]]
5.38

Quick one: Kd of UCUCUUUGUAUUCCCUCUCUU (ssRNA) [Ic_S1_P4E.1_K4.1_C4.1_H4.1_A4.1_[A6T]_[T7C]_F4.1_[T8C]_[A9C]_T4.1] ?
505

Kd lookup needed for UCUCUUCUUGUAUAUAUUCCUAUCUCUU (ssRNA) [Ie_S1_P3E.2_K3.1_C3.2_H3.1_A3.1_F3.1_[+8TTCC]_T3.2] , thanks.
6.86

Fill in: Kd of Ib_S2_P4E.1_K4.1_C4.1_H4.1_[T1A]_[G2C]_A4.1_F4.1_T4.1 (ssRNA) RNA: UUUGAUUAAUAUGAUAUCGUUCUUUCUACUAUAUUAUUCUUUCUCGAUAUCAUAUUAAUCUUU is ___
174
